# Tested on: TK-10 renal
# methodSummary: NCI tumour cell line growth inhibition, 48 h
observedProperty: TGI (µM)

>  <molecule>
COC(=O)C(=O)C(C(=O)C=C(C)C)C(=O)C(=O)Nc1ccc(C)cc1C (stereo not drawn)

>  <qualifierSign>
>

>  <experimentalResult>
100

$$$$
>  <molecule>
CCc1oc2ccccc2c1C(=O)c1cc(I)c(O)c(I)c1

>  <qualifierSign>
=

>  <experimentalResult>
23.4

$$$$
>  <molecule>
O=C(/C(=C/c1cccc([N+](=O)[O-])c1)c1ccccc1)c1ccccc1

>  <qualifierSign>
=

>  <experimentalResult>
21.4

$$$$
>  <molecule>
N#Cc1c(-c2ccccc2)cc(Nc2cccc(C(F)(F)F)c2)n2c1nc1ccccc12

>  <qualifierSign>
=

>  <experimentalResult>
17.8

$$$$
>  <molecule>
C=C1CC[C@@H]2[C@](C)(COC(C)=O)[C@H](OC(C)=O)CC[C@@]2(C)[C@@H]1CC(Nc1ccc(S(=O)(=O)Nc2ncccn2)cc1)C1=CCOC1=O (stereo partly drawn)

>  <qualifierSign>
=

>  <experimentalResult>
6.03

$$$$
>  <molecule>
CCOc1ccc2c(c1)[n+]([O-])c(-c1nc3ccccc3s1)c(N)[n+]2[O-]

>  <qualifierSign>
>

>  <experimentalResult>
100

$$$$
>  <molecule>
CCCCOC(=O)NC(=O)c1cn(C2CCCCC2)c(=O)[nH]c1=O

>  <qualifierSign>
>

>  <experimentalResult>
100

$$$$
>  <molecule>
CC(C)N1CN(C(C(=O)N[C@@H]2C(=O)N3C2SC(C)(C)C3C(=O)O)c2ccccc2)CSC1=S (stereo partly drawn)

>  <qualifierSign>
>

>  <experimentalResult>
100

$$$$
